Molecular target: Cannabinoid receptor 1 (Homo sapiens)
Assay: Displacement of [3H]CP55940 from cannabinoid CB1 receptor (unknown origin) expressed in HEK293 cells after 60 mins by liquid scintillation counting
Assay type: cell-based
readout name: Kb

line notation: CCCCCCc1c(C(=O)NCCc2ccc(N(C)C)cc2)[nH]c2ccc(Cl)cc12
result: 89.1 nM
//
line notation: CCCc1c(C(=O)NCCc2ccc(N(C)C)cc2)[nH]c2ccc(Cl)cc12
result: 259 nM
//
line notation: CCCc1c(C(=O)NCCc2ccc(N3CCCCC3)cc2)[nH]c2ccc(Cl)cc12
result: 1750 nM
//
line notation: CCCCc1c(C(=O)NCCc2ccc(N(C)C)cc2)[nH]c2ccc(Cl)cc12
result: 209 nM
//
line notation: CCc1c(C(=O)NCCc2ccc(N(C)C)cc2)[nH]c2cc(F)ccc12
result: 1580 nM
//
line notation: CCc1c(C(=O)NCCc2ccc(N(C)C)cc2)[nH]c2cc(Cl)ccc12
result: 3670 nM

The origin of these recorded values is ChEMBL document CHEMBL3232862.
